# measurement.protocol: Pharmacokinetic assay in Balb/c mice (plasma and brain tissue)
# Type: in vivo
# conditions: male, mouse, po, Plasma, p.o. 5 mg/kg, read-out: Peak time tmax
readout.kind: Tmax (min)

INSERT INTO results (compound, unit_annotation, experimental_result) VALUES
  ('O=C(N[C@H]1C[C@H](CCN2CCN(c3cccc(Cl)c3Cl)CC2)C1)c1ccon1 [Example 25A]', 'min', 30);

====

# measured.on: 5-HT2A receptor (Homo sapiens, UniProt P28223)
# Sequence (P28223 whole entry): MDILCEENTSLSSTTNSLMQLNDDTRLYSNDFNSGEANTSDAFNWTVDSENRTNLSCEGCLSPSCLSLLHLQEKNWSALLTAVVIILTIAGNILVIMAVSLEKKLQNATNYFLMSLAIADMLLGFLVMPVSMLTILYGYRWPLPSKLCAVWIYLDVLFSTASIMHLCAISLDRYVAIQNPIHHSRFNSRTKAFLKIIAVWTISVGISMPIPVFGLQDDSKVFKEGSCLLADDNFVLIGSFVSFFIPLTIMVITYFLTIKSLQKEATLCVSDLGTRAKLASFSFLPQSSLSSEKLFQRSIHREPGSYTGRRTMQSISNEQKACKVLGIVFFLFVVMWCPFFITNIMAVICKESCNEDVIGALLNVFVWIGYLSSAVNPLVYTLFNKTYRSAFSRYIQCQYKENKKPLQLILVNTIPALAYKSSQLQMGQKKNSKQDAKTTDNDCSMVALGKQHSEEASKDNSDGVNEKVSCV
# measurement.protocol: Radioligand binding assay, 5-HT2A receptor ([3H]-Ketanserin)
# Set-up: purchased PerkinElmer
# conditions: human 5-HT2A receptor membrane, read-out: 5HT-2A Binding IC50
Measured IC50, listed per entry.
readout.kind: IC50 (nM)

INSERT INTO results (compound, experimental_result) VALUES
  ('Cc1ncc(C(=O)N[C@H]2C[C@H](CCN3CCN(c4cccc(Cl)c4Cl)CC3)C2)o1 [Example 24A]', 1.8),
  ('CC(C)(O)C(=O)N[C@H]1C[C@H](CCN2CCN(c3cccc(Cl)c3Cl)CC2)C1 [Example 11A]', 41.5),
  ('Cc1cc(C(=O)N[C@H]2C[C@H](CCN3CCN(c4cccc(Cl)c4Cl)CC3)C2)on1 [Example 22A]', 1.35);

====

# measurement.protocol: Pharmacokinetic assay in Balb/c mice (plasma and brain tissue)
# Format: in vivo
# conditions: male, mouse, po, Brain, p.o. 5 mg/kg, read-out: Plasma concentration Cmax
readout.kind: Cmax (ng/mL)

INSERT INTO results (compound, readout_kind, experimental_result) VALUES
  ('O=C(N[C@H]1C[C@H](CCN2CCN(c3cccc(Cl)c3Cl)CC2)C1)c1ccon1 [Example 25A]', 'Cmax', 1540);

====

# measurement.protocol: Pharmacokinetic assay in Balb/c mice (plasma and brain tissue)
# Type: in vivo
# conditions: male, mouse, po, Plasma, p.o. 5 mg/kg, read-out: Average residence time MRT
readout.kind: MRT (h)

INSERT INTO results (compound, readout_kind, experimental_result) VALUES
  ('O=C(N[C@H]1C[C@H](CCN2CCN(c3cccc(Cl)c3Cl)CC2)C1)c1ccon1 [Example 25A]', 'MRT', 6.2);

====

# measurement.protocol: Stability in rat liver microsome in vitro
# Type: in vitro ADME, SD rat
# conditions: SD, rat liver microsomes, pH 7.4, 1 μM compound, NADPH/UDPGA, read-out: Half life (t1/2)
readout.kind: half-life at 1 μM (h)

INSERT INTO results (molecule, unit_annotation, experimental_result) VALUES
  ('O=C(N[C@H]1C[C@H](CCN2CCN(c3cccc(Cl)c3Cl)CC2)C1)c1ncco1 [Example 20A]', 'h', 1),
  ('CN(C)C(=O)N[C@H]1CC[C@H](CCN2CCN(c3cccc(Cl)c3Cl)CC2)CC1 [Cariprazine, reference compound]', 'h', 0.878),
  ('O=C(N[C@H]1C[C@H](CCN2CCN(c3cccc(Cl)c3Cl)CC2)C1)c1ccon1 [Example 25A]', 'h', 1.01);

====

# measurement.protocol: Pharmacokinetic assay in Balb/c mice (plasma and brain tissue)
# Assay type: in vivo
# conditions: male, mouse, po, Brain, p.o. 5 mg/kg, read-out: Peak time tmax
readout.kind: Tmax

INSERT INTO results (compound, readout_kind, experimental_result) VALUES
  ('O=C(N[C@H]1C[C@H](CCN2CCN(c3cccc(Cl)c3Cl)CC2)C1)c1ccon1 [Example 25A]', 'Tmax', '1 h');

====

# measurement.protocol: Stability in rat liver microsome in vitro
# Format: in vitro ADME, SD rat
# conditions: SD, rat liver microsomes, pH 7.4, 1 μM compound, NADPH/UDPGA, read-out: Intrinsic clearance rate (CLint)
readout.kind: microsomal CLint at 1 μM (µL/min/mg)

INSERT INTO results (compound, readout_kind, experimental_result) VALUES
  ('CN(C)C(=O)N[C@H]1CC[C@H](CCN2CCN(c3cccc(Cl)c3Cl)CC2)CC1 [Cariprazine, reference compound]', 'microsomal CLint at 1 μM', 26.3),
  ('O=C(N[C@H]1C[C@H](CCN2CCN(c3cccc(Cl)c3Cl)CC2)C1)c1ccon1 [Example 25A]', 'microsomal CLint at 1 μM', 22.9),
  ('O=C(N[C@H]1C[C@H](CCN2CCN(c3cccc(Cl)c3Cl)CC2)C1)c1ncco1 [Example 20A]', 'microsomal CLint at 1 μM', 23.1);

====

# measurement.protocol: Pharmacokinetic assay in Balb/c mice (plasma and brain tissue)
# Assay type: in vivo
# conditions: male, mouse, po, Plasma, p.o. 5 mg/kg, read-out: Plasma concentration Cmax
readout.kind: Cmax

INSERT INTO results (molecule, readout_kind, experimental_result) VALUES
  ('O=C(N[C@H]1C[C@H](CCN2CCN(c3cccc(Cl)c3Cl)CC2)C1)c1ccon1 [Example 25A]', 'Cmax', '362 ng/mL');

====

# measurement.protocol: Pharmacokinetic assay in Balb/c mice (plasma and brain tissue)
# Type: in vivo
# conditions: male, mouse, po, Plasma, p.o. 5 mg/kg, read-out: Area under curve AUC0-∞
readout.kind: AUC(0-inf)

INSERT INTO assay_data (molecule, experimental_result) VALUES
  ('O=C(N[C@H]1C[C@H](CCN2CCN(c3cccc(Cl)c3Cl)CC2)C1)c1ccon1 [Example 25A]', '12900 ng·h/mL');

====

# measurement.protocol: Stability in dog liver microsome in vitro
# Type: in vitro ADME
# conditions: dog liver microsomes, pH 7.4, 1 μM compound, NADPH/UDPGA, read-out: Intrinsic clearance rate (CLint)
readout.kind: microsomal CLint at 1 μM (µL/min/mg)

INSERT INTO assay_data (molecule, experimental_result) VALUES
  ('CN(C)C(=O)N[C@H]1CC[C@H](CCN2CCN(c3cccc(Cl)c3Cl)CC2)CC1 [Cariprazine, reference compound]', 27.7),
  ('O=C(N[C@H]1C[C@H](CCN2CCN(c3cccc(Cl)c3Cl)CC2)C1)c1ncco1 [Example 20A]', 19.6),
  ('O=C(N[C@H]1C[C@H](CCN2CCN(c3cccc(Cl)c3Cl)CC2)C1)c1ccon1 [Example 25A]', 19.9);

====

# measured.on: D3 receptor (Homo sapiens)
# Sequence (P35462 whole entry): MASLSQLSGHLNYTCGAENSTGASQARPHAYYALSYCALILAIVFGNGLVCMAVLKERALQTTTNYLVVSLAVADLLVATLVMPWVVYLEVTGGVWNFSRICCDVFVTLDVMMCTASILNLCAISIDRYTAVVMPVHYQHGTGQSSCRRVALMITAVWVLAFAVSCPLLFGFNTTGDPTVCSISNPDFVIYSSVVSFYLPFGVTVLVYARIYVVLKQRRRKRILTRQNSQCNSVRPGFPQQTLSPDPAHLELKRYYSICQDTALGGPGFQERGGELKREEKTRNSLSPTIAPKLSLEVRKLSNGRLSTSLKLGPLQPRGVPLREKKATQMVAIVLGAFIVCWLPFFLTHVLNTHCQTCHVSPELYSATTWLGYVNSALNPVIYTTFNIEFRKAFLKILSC
# measurement.protocol: cAMP content in cells stably expressing D3 receptors (CHO-D3)
# conditions: forskolin, agonistic activity
# Protocol: To determine the activation effect of the compounds on D3 receptor. 3. Experimental Method: • 1. Preparation of the buffer: 1*HBSS+20 mM HEPES+0.1% BSA+500 μM IBMX. • Complete medium: Ham's F12K+10% fetal bovine serum+1*penicillin-streptomycin+400 µg/mL G418. • 2. CHO-D3 cells were cultured in the complete medium at 37° C., 5% C02. […]
Known EC50 of a selection of compounds
readout.kind: EC50 (nM)

INSERT INTO results (compound, measured_on, experimental_result) VALUES
  ('Cc1ncc(C(=O)N[C@H]2C[C@H](CCN3CCN(c4cccc(Cl)c4Cl)CC3)C2)o1 [Example 24A]', 'D3 receptor (Homo sapiens)', 1.7),
  ('CC(C)(O)C(=O)N[C@H]1C[C@H](CCN2CCN(c3cccc(Cl)c3Cl)CC2)C1 [Example 11A]', 'D3 receptor (Homo sapiens)', 0.4),
  ('Cc1cc(C(=O)N[C@H]2C[C@H](CCN3CCN(c4cccc(Cl)c4Cl)CC3)C2)on1 [Example 22A]', 'D3 receptor (Homo sapiens)', 0.9);

====

# measurement.protocol: Stability in human liver microsome in vitro
# Assay type: in vitro ADME
# conditions: human liver microsomes, pH 7.4, 1 μM compound, NADPH/UDPGA, read-out: Intrinsic clearance rate (CLint)
readout.kind: microsomal CLint at 1 μM (µL/min/mg)

INSERT INTO assay_data (compound, readout_kind, experimental_result) VALUES
  ('O=C(N[C@H]1C[C@H](CCN2CCN(c3cccc(Cl)c3Cl)CC2)C1)c1ccon1 [Example 25A]', 'microsomal CLint at 1 μM', 15.4),
  ('CC(C)(O)CC(=O)NC1CC(CCN2CCN(c3cccc(Cl)c3Cl)CC2)C1 (stereo not shown)', 'microsomal CLint at 1 μM', 18.3),
  ('O=C(NC1CC(CCN2CCN(c3cccc(Cl)c3Cl)CC2)C1)C1(O)CC1 (stereo not shown)', 'microsomal CLint at 1 μM', 37.2),
  ('O=C(N[C@H]1C[C@H](CCN2CCN(c3cccc(Cl)c3Cl)CC2)C1)c1ncco1 [Example 20A]', 'microsomal CLint at 1 μM', 13.1),
  ('CN(C)C(=O)NC1CC(CCN2CCN(c3cccc4sccc34)CC2)C1 (stereo not shown)', 'microsomal CLint at 1 μM', 45.4),
  ('O=C(N[C@H]1C[C@H](CCN2CCN(c3cccc(Cl)c3Cl)CC2)C1)C1(O)CC1 [Example 13A]', 'microsomal CLint at 1 μM', 10),
  ('CN(C)C(=O)N[C@H]1CC[C@H](CCN2CCN(c3cccc(Cl)c3Cl)CC2)CC1 [Cariprazine, reference compound]', 'microsomal CLint at 1 μM', 18);
